Target Or Test System: Dihydrofolate reductase (Homo sapiens)
Sequence (whole entry): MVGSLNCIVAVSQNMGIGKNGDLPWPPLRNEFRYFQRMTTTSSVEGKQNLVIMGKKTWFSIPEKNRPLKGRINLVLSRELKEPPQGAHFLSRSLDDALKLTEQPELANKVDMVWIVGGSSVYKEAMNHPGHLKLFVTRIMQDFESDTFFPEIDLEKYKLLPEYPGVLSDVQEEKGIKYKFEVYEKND
A collection of molecules and their measured Log 1/Ki app
Reported Endpoint: Log 1/Ki app

>>> result("CCCCCCCCCCCOc1ccc(N2C(N)=NC(N)=NC2(C)C)cc1")
5.68
>>> result("CC1(C)N=C(N)N=C(N)N1c1ccc(OCCOc2ccc(N)cc2)cc1")
6
>>> result("COC(=O)c1ccc(N2C(N)=NC(N)=NC2(C)C)cc1")
3.85
>>> result("CC1(C)N=C(N)N=C(N)N1c1ccc(O)cc1")
4.57
>>> result("Cc1cccc(SCc2ccc(N3C(N)=NC(N)=NC3(C)C)cc2)c1")
7.22
